These data points were gathered from the supplement of paper PMC6555819.

Tested on: THRa homodimer (NR concentration 90 nM)
Test Protocol: PBM binding z-score (relative to random genomic background probes); higher = stronger binding; sequences stand for … in GC…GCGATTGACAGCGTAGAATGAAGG
Group membership follows PBM binding z-score per the scheme bottom range: < 0.2; center range: ≥ 0.2 and < 2; top range: ≥ 2

ATCTCTAGGTAAAAGTCCAGTGAATCCCGAGGAT :: bottom range
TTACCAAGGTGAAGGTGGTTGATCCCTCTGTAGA :: center range
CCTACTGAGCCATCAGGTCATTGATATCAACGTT :: top range
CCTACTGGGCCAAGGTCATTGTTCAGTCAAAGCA :: top range
CCTGCTGGGCCATCAGGTCATTGATATCAACGTT :: top range
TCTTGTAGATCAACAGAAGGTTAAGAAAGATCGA :: bottom range
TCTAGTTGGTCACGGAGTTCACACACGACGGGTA :: center range
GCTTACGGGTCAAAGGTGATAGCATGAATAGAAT :: bottom range

The entry to classify is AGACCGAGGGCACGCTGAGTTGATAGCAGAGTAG ; which class holds it?
bottom range

The entry to classify is CTACCAAGGTGAACAAGGTCGTTGATTACTATTC ; which class holds it?
center range

The entry to classify is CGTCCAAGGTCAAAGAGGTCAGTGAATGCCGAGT ; which class holds it?
top range

----------
Recorded PBM binding z-score values for a group of sequences are listed next.
Tested on: RARg:RXRa (NR concentration 270 nM, RXRa partner concentration 90 nM)
Test Protocol: PBM binding z-score (relative to random genomic background probes); higher = stronger binding; sequences stand for … in GC…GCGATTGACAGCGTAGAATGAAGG
// no unit, no text: just the number

Recorded PBM binding z-score, per entry:
ATCTCTAGGTAAGACTCAGTTCTGTGAAGAACGC :: -0.271
CCTTACGGGTCACTCCAGGTTATAGCATCGGAGT :: 4.39
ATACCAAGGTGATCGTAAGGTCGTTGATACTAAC :: 2.35

The reported value for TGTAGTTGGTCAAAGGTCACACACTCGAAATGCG in terms of PBM binding z-score is 7.09

The reported value for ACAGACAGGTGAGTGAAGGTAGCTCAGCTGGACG in terms of PBM binding z-score is -0.00932

The reported value for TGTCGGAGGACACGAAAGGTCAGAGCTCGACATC in terms of PBM binding z-score is 4.97

The reported value for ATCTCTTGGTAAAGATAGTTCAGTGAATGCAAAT in terms of PBM binding z-score is 0.592

The reported value for ACTATTAGTTGACATAGGGCAACCGATACGACGC in terms of PBM binding z-score is 0.928

The reported value for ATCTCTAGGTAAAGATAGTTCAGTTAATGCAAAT in terms of PBM binding z-score is 0.937

The reported value for AGAACGAGGCCACGCTGAGTTGATAGCAGAGTAG in terms of PBM binding z-score is 0.764

----------
Recorded PBM binding z-score values for a group of sequences are listed next.
System: PXR:RXRa (NR concentration 270 nM, RXRa partner concentration 90 nM)
Test Protocol: PBM binding z-score (relative to random genomic background probes); higher = stronger binding; sequences stand for … in GC…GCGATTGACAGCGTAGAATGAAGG

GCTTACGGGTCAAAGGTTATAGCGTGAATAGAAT :: 5.96
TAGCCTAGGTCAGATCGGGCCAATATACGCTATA :: 2.21
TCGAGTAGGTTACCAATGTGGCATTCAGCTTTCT :: 0.165

The reported value for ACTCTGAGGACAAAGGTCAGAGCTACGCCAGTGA in terms of PBM binding z-score is 3.74

The reported value for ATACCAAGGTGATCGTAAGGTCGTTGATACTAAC in terms of PBM binding z-score is 2.81

The reported value for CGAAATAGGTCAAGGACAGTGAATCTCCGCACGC in terms of PBM binding z-score is 2.69
